The origin of these recorded values is patent US20090305995A1.

Attribute: Papp
# Experimental Protocol: high throughput permeability (HT-Permeability, log Pe)
# Type: physicochemical
# Measurement Context: PAMPA; pH 4.0; Pe in cm/s; read-out: HT-Permeability logPe pH 4.0 (converted)
Attribute Measured: Papp

{"columns": ["Smiles Structure", "Attribute Measured", "Readout Value"],
 "data": [
  ["C[C@H]1OC(=O)C[C@H]1NC(=O)C[C@H](CCCCN)NC(=O)[C@@H](Cc1c[nH]c2ccccc12)NC(=O)C[C@H](Cc1ccccc1)NC(=O)c1ccccc1", "Papp", "0.1 ×10⁻⁶ cm/s"],
  ["C[C@@H](O)[C@@H](CC(N)=O)NC(=O)C[C@H](CCCCN)NC(=O)[C@@H](Cc1c[nH]c2ccccc12)NC(=O)C[C@H](Cc1ccccc1)NC(=O)c1ccccc1", "Papp", "0.1 ×10⁻⁶ cm/s"]
]}
